test: Primary qHTS for delayed death inhibitors of the malarial parasite plastid, 48 hour incubation; conditions: P. falciparum luciferase growth in erythrocytes; series mostly up to 28.7 µM
About 18,000 (5.8%) of roughly 310,000 compounds were called active. Inconclusive results (about 22%) are left out. The call rests on the fitted dose curve; in most records, active means well fitted inhibition curve with a large enough effect; inconclusive means small, poorly fitted or top-dose-only effect, or another doubt; inactive means no such curve, though single readings can be large or run the other way. This is one part of a sample in which actives are shown more often than they occur.
Can you answer with just one of these options? t for active, f for inactive

Which result was noted for this molecule in the test: Cc1ccc(Nc2nnc(SCc3ccccc3)s2)cc1
f

Which result was noted for this molecule in the test: O=C(c1ccc(-n2cnnn2)cc1)N1CCN(C(c2ccccc2)c2ccccc2)CC1
t

Which result was noted for this molecule in the test: O=C(O)CN1CCN(C(c2ccccc2)c2ccccc2)CC1
f

Which result was noted for this molecule in the test: Cc1ccc(S(=O)(=O)N2CCN(C)CC2)cc1C(=O)NC1CCCCC1
f

Which result was noted for this molecule in the test: O=C(NCc1ccncc1)NC12CC3CC(CC(C3)C1)C2
f

Which result was noted for this molecule in the test: O=C(/C=C(O)/C=C/c1ccc(O)cc1)/C=C/c1ccc(O)cc1
f

Which result was noted for this molecule in the test: CC(OC(=O)CCCc1c[nH]c2ccccc12)C(=O)Nc1ccc(S(N)(=O)=O)cc1 (stereo not given)
f

Which result was noted for this molecule in the test: O=C(CNCc1cccs1)Nc1cc(S(=O)(=O)N2CCCC2)ccc1Cl
f

Which result was noted for this molecule in the test: O=C(CN(C(=O)c1csnn1)c1ccc(Br)cc1)NC1CCCC1
f

Which result was noted for this molecule in the test: COc1ccc(C2CC(c3ccccc3)=NN2C(=O)COC(=O)COc2ccccc2)cc1 (stereo not given)
f

Which result was noted for this molecule in the test: N#Cc1ccc(CN2CCN(CC(=O)Nc3ccccc3C(=O)NC3CC3)CC2)cc1
f

Which result was noted for this molecule in the test: COc1cccc(-c2cc(C(=O)N3CCN(c4ccccc4OC)CC3)no2)c1
f

Which result was noted for this molecule in the test: COc1ccc(CCc2nc(-c3cccs3)no2)cc1
f

Which result was noted for this molecule in the test: O=C(NCc1cccnc1)C12CC3CC(CC(C3)C1)C2
f

Which result was noted for this molecule in the test: Cc1ccc2nc(N3C(=O)C(O)=C(C(=O)c4ccco4)C3c3cccc(O)c3)sc2c1 (stereo not given)
f

Which result was noted for this molecule in the test: CCc1ccc(Nc2n[n+](-c3ccccc3)c(-c3cccc(Cl)c3Cl)s2)cc1
t

Which result was noted for this molecule in the test: COc1cccc(CNC(=O)CCC2CCCN(C(=O)c3ccc(F)c(Cl)c3)C2)c1 (stereo not given)
f

Which result was noted for this molecule in the test: CC1CCCC(NC(=O)c2cc(S(=O)(=O)N3CCCCC3)ccc2Cl)C1C (stereo not given)
t

Which result was noted for this molecule in the test: C=CCOC(=O)C1=C(C)NC(SCC(=O)OCC)=C(C#N)C1c1ccc(C)cc1 (stereo not given)
f

Which result was noted for this molecule in the test: Cc1cccc(OP(=O)(Nc2c(C)n(C)n(-c3ccccc3)c2=O)Oc2cccc(C)c2)c1
f

Which result was noted for this molecule in the test: CN(NS(=O)(=O)c1cccs1)c1ncc(C(F)(F)F)cc1Cl
f

Which result was noted for this molecule in the test: O=C(NNC(=O)c1cc(S(=O)(=O)N2CCCCC2)ccc1Cl)c1ccccc1O
f

Which result was noted for this molecule in the test: Cn1nnnc1SCC(=O)N1CCN(Cc2ccccc2)CC1
f

Which result was noted for this molecule in the test: CCn1cc(C(=O)N2CC(C)CC(C)C2)c(=O)c2cc(S(=O)(=O)N3CCCC3)ccc21 (stereo not given)
f

Which result was noted for this molecule in the test: S=C(NCc1ccc(Cl)cc1)NC12CC3CC(CC(C3)C1)C2
t

Which result was noted for this molecule in the test: O=C(c1c(F)cccc1Cl)N1CCN(c2ccccn2)CC1
f

Which result was noted for this molecule in the test: O=C(c1ccccc1F)N1CCN(S(=O)(=O)c2ccc(Br)cc2)CC1
f

Which result was noted for this molecule in the test: COc1ccc(C2CC(c3cccs3)=NN2C(=O)CCC(=O)O)cc1OC (stereo not given)
f

Which result was noted for this molecule in the test: Cc1cccc(OP(=O)(Oc2cccc(C)c2)OC(c2ccccc2)C(F)(F)F)c1 (stereo not given)
t

Which result was noted for this molecule in the test: O=C(O)C1=NN(c2c(F)c(F)cc(F)c2F)C(=O)CC1
f

Which result was noted for this molecule in the test: CC(=O)NCCC(=O)Nc1cc(S(=O)(=O)N2CCCCC2)ccc1Oc1cccc(C)c1
f

Which result was noted for this molecule in the test: O=C(Nc1ccccc1Cl)NC1(C(=O)N2CCOCC2)CCCCC1
f

Which result was noted for this molecule in the test: CCn1cc(C(=O)NCCCN2CCCCCC2)c(=O)c2cc(S(=O)(=O)N3CCc4ccccc4C3)ccc21
t

Which result was noted for this molecule in the test: O=C(NC1CCCCC1)C1CCC(CNS(=O)(=O)c2ccccc2)CC1 (stereo not given)
f

Which result was noted for this molecule in the test: Cc1onc(-c2c(F)cccc2Cl)c1C(=O)N(C)CC(=O)Nc1cccc(F)c1
f

Which result was noted for this molecule in the test: COc1ccccc1N1CCN(C(=O)c2cc(-c3ccc(Cl)c(Cl)c3)on2)CC1
f

Which result was noted for this molecule in the test: Cc1onc(-c2c(Cl)cccc2Cl)c1C(=O)NNC(=O)c1c(-c2c(Cl)cccc2Cl)noc1C
t

Which result was noted for this molecule in the test: CC1CC2=C(CC1/C=N/NC(N)=S)C(C)(C)CCC2 (stereo not given)
t

Which result was noted for this molecule in the test: COc1ccccc1C(=O)NCCC(=O)N(C)Cc1cccnc1
f

Which result was noted for this molecule in the test: CCOC(=O)C1=C(C)NC(=O)NC1c1ccccc1 (stereo not given)
f

###

assay: Primary qHTS for delayed death inhibitors of the malarial parasite plastid, 48 hour incubation; details: P. falciparum luciferase growth in erythrocytes; series mostly up to 28.7 µM
The whole screen tested about 310,000 compounds, of which about 18,000 (5.8%) were called active. About 22% were inconclusive and are not listed. Calls follow the shape of the dose curve; as a rule, active = well fitted inhibition curve with a large enough effect; inconclusive = small, poorly fitted or top-dose-only effect, or another doubt; inactive = no such curve, though single readings can be large or run the other way. The sample holds actives, similar compounds and a random draw of the others, so the mix is not that of the screen.
Can you answer with just one of these options? 1 (yes) (active), 0 (no) (inactive)

Which result was noted for this compound in the test: COc1ccc(C2Nc3ccccc3C(=O)N2c2ccc(F)cc2)cc1Cn1nnc2ccccc21 (stereo not drawn)
1 (yes)

Which result was noted for this compound in the test: Oc1ccc2ccccc2c1C=Nc1ccccc1
0 (no)

Which result was noted for this compound in the test: O=C(CN1CCN(c2cccc(Cl)c2)CC1)Nc1ccc(S(=O)(=O)N2CCOCC2)cc1
1 (yes)

Which result was noted for this compound in the test: O=C(Nc1ccc2cn[nH]c2c1)c1ccc(S(=O)(=O)N2CCOCC2)cc1
0 (no)

Which result was noted for this compound in the test: Cc1cnc(C)c(N2CCN(C(=O)C3CCC(=O)N(CCc4cccc(F)c4)C3)CC2)n1 (stereo not drawn)
0 (no)

Which result was noted for this compound in the test: Cc1ccc(S(=O)(=O)N2CCOCC2)cc1C(=O)NCc1ccc(F)cc1
0 (no)

Which result was noted for this compound in the test: Cn1c(SCC(=O)Nc2cccc(O)c2)nnc1-c1ccc(S(=O)(=O)N2CCOCC2)cc1
0 (no)

Which result was noted for this compound in the test: O=C(COC(=O)c1ccccc1)Nc1ccc(Cl)cc1C(=O)c1ccccc1
0 (no)

Which result was noted for this compound in the test: Oc1ccc(N=Cc2c(O)ccc3ccccc23)cc1
1 (yes)

Which result was noted for this compound in the test: O=C(CCNS(=O)(=O)c1ccccc1)Nc1ccc(Cl)cc1C(=O)c1ccccc1
1 (yes)

Which result was noted for this compound in the test: NC(=O)COC(=O)/C=C/c1ccc2ccccc2n1
0 (no)

Which result was noted for this compound in the test: O=C(c1cc(COc2cccc(C(F)(F)F)c2)on1)N1CCSCC1
0 (no)

Which result was noted for this compound in the test: CC1CN(C(=S)Nc2ccccc2F)CC(C)O1 (stereo not drawn)
0 (no)

Which result was noted for this compound in the test: COc1cccc(N2CC(C(=O)NCc3n[nH]c(=O)c4ccccc34)CC2=O)c1 (stereo not drawn)
0 (no)

Which result was noted for this compound in the test: CCC(C)N(C(=O)Cn1nc(C)c([N+](=O)[O-])c1C)C1CCS(=O)(=O)C1 (stereo not drawn)
0 (no)

Which result was noted for this compound in the test: Nc1nc(NCc2ccccc2)n(-c2ccccc2)n1
0 (no)

Which result was noted for this compound in the test: Cc1ccc(CNC(=O)[C@@H](NC(=O)Cc2ccccc2)C(C)C)cc1
0 (no)

Which result was noted for this compound in the test: O=[N+]([O-])c1ccc(N=Cc2c(O)ccc3ccccc23)cc1
0 (no)

Which result was noted for this compound in the test: CCn1cc(CN2CCC(n3nccc3NC(=O)CCCc3ccccc3)CC2)c(C)n1
0 (no)

Which result was noted for this compound in the test: CC(=O)c1ccc(S(=O)(=O)N2CCC3(CC2)OCCO3)cc1
0 (no)

Which result was noted for this compound in the test: O=C(Nc1nnc(C2CC2)s1)c1cc(Cl)sc1Cl
0 (no)

Which result was noted for this compound in the test: CC1(C)CC(=O)CC2(C1)NCC(c1ccccc1Cl)c1c2[nH]c2ccccc12 (stereo not drawn)
1 (yes)

Which result was noted for this compound in the test: CN1CCN(C(=S)SCC(=O)Nc2ccc(Cl)cc2C(=O)c2ccccc2)CC1
0 (no)

Which result was noted for this compound in the test: O=C(CN1CCN(S(=O)(=O)/C=C/c2ccccc2)CC1)Nc1ccc(N2CCOCC2)cc1
0 (no)

Which result was noted for this compound in the test: COc1ccc(CNc2cc(C)cc(C)c2)cc1OC
0 (no)

Which result was noted for this compound in the test: Cc1ccc(CNS(=O)(=O)CCNC(=O)c2ccccc2)cc1
0 (no)

Which result was noted for this compound in the test: CC(Sc1nnc(C2CC2)n1C1CC1)C(=O)Nc1ccc(C(N)=O)cc1 (stereo not drawn)
0 (no)

Which result was noted for this compound in the test: CCCCOC(=O)c1[nH]c(C)c(C(=O)OC)c1C
0 (no)

Which result was noted for this compound in the test: CN(CC(=O)Nc1ccc(F)cc1)CC(=O)N1CCCCC1
0 (no)

Which result was noted for this compound in the test: Cn1c(SCC(=O)NC2CCCCC2)nnc1-c1ccc(N)cc1
0 (no)

Which result was noted for this compound in the test: COCC(=O)N1CCc2ccc(NC(=O)c3ccccc3Cl)cc2C1
0 (no)

Which result was noted for this compound in the test: Nc1nc(SCC(=O)Nc2cc(C(F)(F)F)ccc2Cl)[nH]c(=O)c1NC(=O)c1ccco1
0 (no)

Which result was noted for this compound in the test: COc1cc(C(=O)N/C(=C\c2cn(C)c3ccccc23)C(=O)N2CCOCC2)cc(OC)c1OC
0 (no)
